Test system: Human whole blood
method_summary: Human Whole Blood Assay (LPS induced PGE2 production)
Type: cell-based
measurement_parameters: LPS 100 μg/mL, 20-24 hours, PGE2 by LC/MS/MS, read-out: PGE2 Inhibition. IC50 (μM, mean ± std. dev.)
Experimental: Blood is collected from normal volunteer donors into sodium heparin vacutainer tubes. Donors are selected, in part, on their confirmation that they have not taken NSAIDs, aspirin, Celebrex, or glucocorticoids within two weeks of the donation. […] One hundred microliters is quantitatively transferred to Costar cluster tubes blocks and 400 μL/well of the methanol stop reagent and internal standards, d-4PGE2, d-4PGF2α, and d-4TX2β are added. […]
quantity_name: IC50 (µM)
One number for each entry, in µM.

Ask: Item: CC(C)(C)C(=O)NCc1ccc(Br)c(C(=O)Nc2ncc[nH]2)c1 Test system: Human whole blood Read-out: IC50 Value: ?
Result: 0.607
